condition details: human gut metagenome, 24 h, 2 µM; note: call rule not given here
metric: Bacterial Biotransformation

Some molecules with known Bacterial Biotransformation results, for comparison:
CN1CCN(CC/C=C2/c3ccccc3Sc3ccc(S(=O)(=O)N(C)C)cc32)CC1 | Compound metabolized
CCOC(=O)[C@H](CCc1ccccc1)N[C@@H](C)C(=O)N1[C@H](C(=O)O)C[C@H]2CCCC[C@@H]21 | Compound metabolized
Cc1ccc(/C(=C\CN2CCCC2)c2ccccn2)cc1 | Compound NOT metabolized
CC(=O)OCC(=O)[C@@]12N=C(C)O[C@@H]1C[C@H]1[C@@H]3CCC4=CC(=O)C=C[C@]4(C)[C@H]3[C@@H](O)C[C@@]12C | Compound metabolized
CNC(=C[N+](=O)[O-])NCCSCc1csc(CN(C)C)n1 | Compound metabolized
CCc1nc(N)nc(N)c1-c1ccc(Cl)cc1 | Compound NOT metabolized
C=CCc1ccccc1OCC(O)CNC(C)C (stereo not drawn) | Compound NOT metabolized

Turning to the following molecule.
Prompt: Which value of Bacterial Biotransformation has been reported for CC(C)(C)NC[C@H](O)COc1ccccc1C1CCCC1.CC(C)(C)NC[C@H](O)COc1ccccc1C1CCCC1.O=S(=O)(O)O [PENBUTOLOL SULFATE] in the records?
Response: Compound metabolized

###

assay comment: The drug is tested on Z-013 corresponding to rabbit gut metagenome with ENA study accession number: PRJEB37062 and ENA sample accession number: ERS12561813 for biotransformation under anaerobic condition. The drug concentrations were measured over 9 timepoints collected between 0 and 24 hours of incubation by liquid-chromatography-coupled mass spectrometry (LC–MS)
condition details: 2 µM
metric: Bacterial Biotransformation

Some compounds with known Bacterial Biotransformation results, for comparison:
COc1ccc2[nH]c([S+]([O-])Cc3ncc(C)c(OC)c3C)nc2c1 (stereo not drawn) | Compound NOT metabolized
CN1CCOC(c2ccccc2)c2ccccc2C1 (stereo not drawn) | Compound NOT metabolized
CCC(COC(=O)c1cc(OC)c(OC)c(OC)c1)(c1ccccc1)N(C)C.O=C(O)/C=C\C(=O)O (stereo not drawn) | Compound NOT metabolized
CC(C)(C#N)c1cc(Cn2cncn2)cc(C(C)(C)C#N)c1 | Compound NOT metabolized
O=C(CCCN1CCC(O)(c2ccc(Cl)cc2)CC1)c1ccc(F)cc1 | Compound NOT metabolized

Prompt: Which value of Bacterial Biotransformation has been reported for COC(=O)Nc1nc2ccc(C(=O)c3ccccc3)cc2[nH]1 in the records?
Response: Compound metabolized

Prompt: Which value of Bacterial Biotransformation has been reported for Cc1nc2n(c(=O)c1CCN1CCC(c3noc4cc(F)ccc34)CC1)CCCC2O (stereo not drawn) in the records?
Response: Compound NOT metabolized

Prompt: Which value of Bacterial Biotransformation has been reported for CCN(CC)C(=O)/C(C#N)=C/c1cc(O)c(O)c([N+](=O)[O-])c1 in the records?
Response: Compound metabolized

Prompt: Which value of Bacterial Biotransformation has been reported for CC[C@H](C)C(=O)O[C@H]1C[C@@H](C)C=C2C=C[C@H](C)[C@H](CC[C@@H]3C[C@@H](O)CC(=O)O3)[C@H]21 in the records?
Response: Compound NOT metabolized

Prompt: Which value of Bacterial Biotransformation has been reported for CC(C)OC(=O)C(C)(C)Oc1ccc(C(=O)c2ccc(Cl)cc2)cc1 [FENOFIBRATE] in the records?
Response: Compound metabolized

Prompt: Which value of Bacterial Biotransformation has been reported for CC(=O)OCC(=O)[C@@]1(O)[C@@H](C)C[C@H]2[C@@H]3CCC4=CC(=O)C=C[C@]4(C)[C@@]3(F)[C@@H](O)C[C@@]21C [BETAMETHASONE ACETATE] in the records?
Response: Compound metabolized

Prompt: Which value of Bacterial Biotransformation has been reported for Cc1ccc(-c2nc3ccc(C)cn3c2CC(=O)N(C)C)cc1 in the records?
Response: Compound NOT metabolized

Prompt: Which value of Bacterial Biotransformation has been reported for CC(O)(CS(=O)(=O)c1ccc(F)cc1)C(=O)Nc1ccc(C#N)c(C(F)(F)F)c1 (stereo not drawn) [BICALUTAMIDE] in the records?
Response: Compound NOT metabolized

Prompt: Which value of Bacterial Biotransformation has been reported for CN1CCC(=C2c3ccccc3CCc3cccnc32)CC1.O=C(O)/C=C\C(=O)O.O=C(O)/C=C\C(=O)O [AZATADINE MALEATE] in the records?
Response: Compound NOT metabolized

Prompt: Which value of Bacterial Biotransformation has been reported for CC(C)N(CCC(C(N)=O)(c1ccccc1)c1ccccn1)C(C)C.O=P(O)(O)O (stereo not drawn) [DISOPYRAMIDE PHOSPHATE] in the records?
Response: Compound NOT metabolized

Prompt: Which value of Bacterial Biotransformation has been reported for CCCC1O[C@@H]2C[C@H]3[C@@H]4CCC5=CC(=O)C=C[C@]5(C)[C@H]4[C@@H](O)C[C@]3(C)[C@]2(C(=O)CO)O1 (stereo partly drawn) [BUDESONIDE] in the records?
Response: Compound metabolized

###

assay comment: The drug is tested on WLS-370 corresponding to human gut metagenome with ENA study accession number: PRJEB37062 and ENA sample accession number: ERS12561793 for biotransformation under anaerobic condition. The drug concentrations were measured over 9 timepoints collected between 0 and 24 hours of incubation by liquid-chromatography-coupled mass spectrometry (LC–MS)
condition details: 2 µM
metric: Bacterial Biotransformation

Cc1ccc(/C(=C\CN2CCCC2)c2ccccn2)cc1 [TRIPROLIDINE] | Compound NOT metabolized
COCCc1ccc(OCC(O)CNC(C)C)cc1.COCCc1ccc(OCC(O)CNC(C)C)cc1.O=C(O)C(O)C(O)C(=O)O (stereo not drawn) [METOPROLOL TARTRATE] | Compound metabolized
c1ccc([C@H]2CN3CCSC3=N2)cc1 [LEVAMISOLE] | Compound metabolized
O=c1[nH]c2ccccc2n1CCCN1CCC(n2c(=O)[nH]c3cc(Cl)ccc32)CC1 [DOMPERIDONE] | Compound NOT metabolized
CN1C(C(=O)Nc2ccccn2)=C(O)c2sccc2S1(=O)=O [TENOXICAM] | Compound NOT metabolized
O=C(O)CCc1nc(-c2ccccc2)c(-c2ccccc2)o1 [OXAPROZIN] | Compound metabolized
O=C1[C@H](CC[C@H](O)c2ccc(F)cc2)[C@@H](c2ccc(O)cc2)N1c1ccc(F)cc1 [EZETIMIBE] | Compound metabolized

Turning to the following molecule.
Prompt: Which value of Bacterial Biotransformation has been reported for COC1=CC(=O)C[C@@H](C)[C@]12Oc1c(Cl)c(OC)cc(OC)c1C2=O [GRISEOFULVIN] in the records?
Response: Compound metabolized

###

condition details: human gut metagenome, 24 h, 2 µM
metric: Bacterial Biotransformation

Some compounds with known Bacterial Biotransformation results, for comparison:
C[C@@H](CO)NC(=O)[C@@H]1C=C2c3cccc4[nH]cc(c34)C[C@H]2N(C)C1.O=C(O)/C=C\C(=O)O [ERGONOVINE MALEATE] | Compound metabolized
Cc1ccnc2c1NC(=O)c1cccnc1N2C1CC1 | Compound metabolized
CC(C)(Oc1ccc(CCNC(=O)c2ccc(Cl)cc2)cc1)C(=O)O [BEZAFIBRATE] | Compound metabolized
CNS(=O)(=O)Cc1ccc2[nH]cc(CCN(C)C)c2c1.O=C(O)CCC(=O)O [SUMATRIPTAN SUCCINATE] | Compound metabolized
CS(=O)(=O)O.OC(CCN1CCCCC1)(c1ccccc1)c1ccccc1 [PRIDINOL METHANESULFONATE] | Compound metabolized

Prompt: Which value of Bacterial Biotransformation has been reported for OC(Cn1cncn1)(Cn1cncn1)c1ccc(F)cc1F in the records?
Response: Compound NOT metabolized

###

condition details: human gut metagenome, 24 h, 2 µM
metric: Bacterial Biotransformation

Some compounds with known Bacterial Biotransformation results, for comparison:
Cc1ccc(-c2cc(C(F)(F)F)nn2-c2ccc(S(N)(=O)=O)cc2)cc1 | Compound metabolized
CO[C@]12C[C@@H](COC(=O)c3cncc(Br)c3)CN(C)[C@@H]1Cc1cn(C)c3cccc2c13 | Compound NOT metabolized
C[C@@H]1CC[C@H]2[C@@H](C)C(=O)O[C@@H]3O[C@@]4(C)CC[C@@H]1[C@]32OO4 | Compound metabolized
CCN(CC)CCOC(=O)C(Cc1cccc2ccccc12)CC1CCCO1.O=C(O)C(=O)O (stereo not drawn) [NAFRONYL OXALATE] | Compound NOT metabolized
CCCC1O[C@@H]2C[C@H]3[C@@H]4CCC5=CC(=O)C=C[C@]5(C)[C@H]4[C@@H](O)C[C@]3(C)[C@]2(C(=O)CO)O1 (stereo partly drawn) [BUDESONIDE] | Compound metabolized

Prompt: Which value of Bacterial Biotransformation has been reported for Nc1nc2ccc(OC(F)(F)F)cc2s1 in the records?
Response: Compound metabolized

Prompt: Which value of Bacterial Biotransformation has been reported for CCCCC(=O)N(Cc1ccc(-c2ccccc2-c2nnn[nH]2)cc1)[C@H](C(=O)O)C(C)C in the records?
Response: Compound metabolized

Prompt: Which value of Bacterial Biotransformation has been reported for Cc1nc2n(c(=O)c1CCN1CCC(c3noc4cc(F)ccc34)CC1)CCCC2 in the records?
Response: Compound metabolized
